biological target: LAT1 (L-type amino acid transporter 1) (Rattus norvegicus, UniProt Q63016); construct: gene Slc7a5; endogenous LAT1 in TR-BBB cells; experiment: competitive inhibition of [3H]L-tryptophan uptake in TR-BBB cells (Lineweaver-Burk); type: cell-based; conditions: read-out: Ki
Sequence (Q63016 whole entry): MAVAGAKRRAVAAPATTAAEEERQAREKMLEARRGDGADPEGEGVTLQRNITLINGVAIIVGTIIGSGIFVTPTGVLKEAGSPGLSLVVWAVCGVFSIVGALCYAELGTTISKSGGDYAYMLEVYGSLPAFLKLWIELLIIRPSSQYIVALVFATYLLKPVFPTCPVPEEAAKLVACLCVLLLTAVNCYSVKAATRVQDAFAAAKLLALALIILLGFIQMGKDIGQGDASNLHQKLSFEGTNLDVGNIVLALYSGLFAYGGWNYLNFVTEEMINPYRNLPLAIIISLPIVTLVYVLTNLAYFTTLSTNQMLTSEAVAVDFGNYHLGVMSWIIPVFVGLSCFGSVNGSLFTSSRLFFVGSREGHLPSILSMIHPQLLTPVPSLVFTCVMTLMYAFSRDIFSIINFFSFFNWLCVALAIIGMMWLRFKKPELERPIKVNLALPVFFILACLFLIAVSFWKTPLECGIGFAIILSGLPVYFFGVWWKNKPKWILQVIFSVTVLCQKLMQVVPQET
Measurement Label: Ki (µM)
Field format: number, assumed µM, no unit text.

The measured Ki associated with NCC(CC(=O)O)c1ccc(Cl)cc1 (stereo not shown) reads 1620

* * *

target: LAT1 (L-type amino acid transporter 1) (Rattus norvegicus, UniProt Q63016); construct: gene Slc7a5; endogenous LAT1 in TR-BBB cells; experiment: competitive inhibition of [3H]L-tryptophan uptake in TR-BBB cells (Lineweaver-Burk); assay type: cell-based
Measurement Label: pKi
Give only the number. pKi is defined as minus log10 of concentration in molar units.

The measured pKi associated with NCC1(CC(=O)O)CCCCC1 reads 3.68
